Target: T1, human Nectin-4 on cells (human, UniProt Q96NY8 32-510)
T1 construct: whole, on cells; also called HEK293 cells expressing human Nectin-4; T47D cells that express human Nectin-4
T1 sequence (looked up): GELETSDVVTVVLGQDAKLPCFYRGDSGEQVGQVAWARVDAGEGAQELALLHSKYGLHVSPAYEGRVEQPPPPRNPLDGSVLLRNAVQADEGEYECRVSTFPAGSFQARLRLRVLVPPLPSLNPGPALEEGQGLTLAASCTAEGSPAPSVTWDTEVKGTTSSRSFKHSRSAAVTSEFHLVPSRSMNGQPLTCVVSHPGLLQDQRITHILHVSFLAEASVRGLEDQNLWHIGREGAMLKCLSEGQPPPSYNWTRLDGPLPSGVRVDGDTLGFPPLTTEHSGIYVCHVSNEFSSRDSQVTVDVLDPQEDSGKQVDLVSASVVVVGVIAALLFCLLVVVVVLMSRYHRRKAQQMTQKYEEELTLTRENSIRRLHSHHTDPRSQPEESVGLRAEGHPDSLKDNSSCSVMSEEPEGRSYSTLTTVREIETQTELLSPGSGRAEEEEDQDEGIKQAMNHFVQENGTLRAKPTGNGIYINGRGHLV
Experiment: FACS, T47D cells
endpoint: Ratio (pH 7.4/6.0) of EC50
Please reply with the number alone, leaving off any unit.

# example entries with known answers
>>> observed("BAP-143-06-33-03 (antibody, V domains shown, Used as a conjugate with a linker payload (CAB ADC)) VH: QVQLVQSGAEVKKPGASVKVSCKASGFTFSSYNMNWVRQARGQRLEWIGYISSSSSTIYYADSVKGRFTISRDNSKNTLYLQMNSLRAEDTAVYYCARAYYYGMDKWGQGTLVTVSS VL: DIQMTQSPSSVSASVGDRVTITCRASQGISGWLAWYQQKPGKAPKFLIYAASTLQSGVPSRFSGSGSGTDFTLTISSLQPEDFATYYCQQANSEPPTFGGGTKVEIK")
14.8
>>> observed("BAP-143-wildtype (antibody, V domains shown, 150 kDa used in SPR; also called BAP143-00-00; benchmark (BM)) VH: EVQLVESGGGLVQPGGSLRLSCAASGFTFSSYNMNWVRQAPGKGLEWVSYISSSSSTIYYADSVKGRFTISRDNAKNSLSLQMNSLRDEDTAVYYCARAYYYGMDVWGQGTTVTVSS VL: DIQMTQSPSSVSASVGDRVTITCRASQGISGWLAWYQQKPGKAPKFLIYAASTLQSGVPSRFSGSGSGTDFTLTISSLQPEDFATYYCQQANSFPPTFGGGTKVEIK")
1.2

Ratio (pH 7.4/6.0) of EC50 measured on BAP-143-07-03-12 (antibody, V domains shown, Used as a conjugate with a linker payload (CAB ADC)) VH: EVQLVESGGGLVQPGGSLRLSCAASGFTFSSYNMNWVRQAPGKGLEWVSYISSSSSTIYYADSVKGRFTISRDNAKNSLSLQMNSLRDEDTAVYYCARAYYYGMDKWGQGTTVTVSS VL: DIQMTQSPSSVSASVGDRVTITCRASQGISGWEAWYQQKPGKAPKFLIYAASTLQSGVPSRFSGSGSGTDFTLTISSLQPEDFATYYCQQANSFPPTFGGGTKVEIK = 4.5
